All figures here come from paper PMC11593696.

- study.system: recombinant human NQO2 (Homo sapiens, UniProt P16083)
- Sequence (P16083 whole entry): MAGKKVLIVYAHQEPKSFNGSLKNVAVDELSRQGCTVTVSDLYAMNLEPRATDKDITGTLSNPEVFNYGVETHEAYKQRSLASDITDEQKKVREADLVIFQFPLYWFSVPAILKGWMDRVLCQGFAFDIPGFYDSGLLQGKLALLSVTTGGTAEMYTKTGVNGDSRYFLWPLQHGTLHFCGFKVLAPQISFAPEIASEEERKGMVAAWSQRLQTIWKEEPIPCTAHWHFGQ
- procedure.details: NQO2 enzyme inhibition assay (DCPIP substrate, NRH or EPR co-substrate)
- Assay type: biochemical
- condition.parameters: inhibition of NQO2; DCPIP 40 µM, NRH or EPR 200 µM, phosphate buffer pH 7.4, 37 °C, triplicate; read-out: IC50 (µM) ± SD
- Description: In this assay, dichlorophenolindophenol (DCPIP) was used as a substrate for NQO2. NRH (SI or EP0152R) was used as the co-substrate for the enzyme. The NQO2 enzyme assay was carried out using a […] GO spectrophotometer by measuring the absorbance of DCPIP at 600 nm. NRH [31] or EPR were used as co-substrates. […] The initial rates of the enzyme reactions were calculated from the curve by taking the initial slopes of the reactions using the formula (ΔAb/ΔTime). […]
The label is TRUE for IC50 below 0.8 µM and FALSE for IC50 equal to or exceeding 0.8 µM.

Below, 8 compounds whose answers are already recorded.
COc1ccc2nc(-c3ccc(OC)c(OC)c3)sc2c1 [Compound 32]; FALSE
COc1cc(OC)cc(-c2nc3ccc(I)cc3s2)c1 [Compound 9]; FALSE
Oc1ccc2nc(-c3cc(O)c(O)c(O)c3)sc2c1 [Compound 52]; TRUE
COc1cc(-c2nc3ccc(F)cc3s2)cc(OC)c1OC [Compound 45]; TRUE
COc1ccc(OC)c(-c2nc3ccc(Cl)cc3s2)c1 [Compound 27]; FALSE
COc1ccc(OC)c(-c2nc3ccc(OC)cc3s2)c1 [Compound 24]; FALSE
COc1cc(OC)cc(-c2nc3ccc(NC(=O)c4ccccc4)cc3s2)c1 [Compound 13]; FALSE
COc1ccc2nc(-c3cc(F)cc(F)c3)sc2c1 [Compound 57]; FALSE

Req: # strict comparison: is reported IC50 < 0.8 µM? input = COc1cc(-c2nc3ccc(NC(=O)c4ccccc4)cc3s2)cc(OC)c1OC [Compound 50]
Resp: FALSE

Req: // next record COc1cc(-c2nc3ccc(NC(C)=O)cc3s2)cc(OC)c1OC [Compound 49]
Resp: TRUE

Req: // next record COc1cc(OC)cc(-c2nc3ccc(OC)cc3s2)c1 [Compound 3]
Resp: TRUE

Req: // next record COc1cc(OC)cc(-c2nc3ccc(F)cc3s2)c1 [Compound 8]
Resp: FALSE

Req: // next record COc1ccc(-c2nc3ccc(I)cc3s2)cc1OC [Compound 38]
Resp: FALSE
